The values you see were collected from ChEMBL document CHEMBL1150777.

molecular target: Phospholipase A2, membrane associated (Homo sapiens); assay: Inhibition of human nonpancreatic secretory phospholipase A2
Sequence (P14555 whole entry): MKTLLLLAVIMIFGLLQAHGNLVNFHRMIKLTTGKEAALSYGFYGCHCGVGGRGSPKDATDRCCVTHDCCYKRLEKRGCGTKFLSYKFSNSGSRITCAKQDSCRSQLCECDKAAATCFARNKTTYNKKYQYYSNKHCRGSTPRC
// reported IC50 per item
Give just the number in nM; leave the unit off.

Past entries and their recorded results:
>>> quantitative_readout("COc1ccc2c(c1)c(CC(N)=O)c(C)n2Cc1ccccc1")
540
>>> quantitative_readout("COc1ccc2c(c1)c(CC(N)=O)c(C)n2Cc1cccc(OCCCCCOc2cccc(Cn3c(C)c(CC(N)=O)c4cc(OC)ccc43)c2)c1")
76
>>> quantitative_readout("CCCCCOc1ccccc1Cn1c(C)c(CC(N)=O)c2cc(OC)ccc21")
120

Fill in reported IC50 for this entry: COc1ccc2c(c1)c(CC(N)=O)c(C)n2Cc1ccc(OCCCCCOc2ccc(Cn3c(C)c(CC(N)=O)c4cc(OC)ccc43)cc2)cc1
86

Fill in reported IC50 for this entry: COc1ccc2c(c1)c(CC(N)=O)c(C)n2Cc1ccccc1OCCCCOc1ccccc1Cn1c(C)c(CC(N)=O)c2cc(OC)ccc21
60

Fill in reported IC50 for this entry: COc1ccc2c(c1)c(CC(N)=O)c(C)n2Cc1ccccc1OCCCCCCCOc1ccccc1Cn1c(C)c(CC(N)=O)c2cc(OC)ccc21
52

Fill in reported IC50 for this entry: COc1ccc2c(c1)c(CC(N)=O)c(C)n2Cc1ccccc1OCCCCCCCCCOc1ccccc1Cn1c(C)c(CC(N)=O)c2cc(OC)ccc21
49

Fill in reported IC50 for this entry: COc1ccc2c(c1)c(CC(N)=O)c(C)n2Cc1ccccc1OCCCOc1ccccc1Cn1c(C)c(CC(N)=O)c2cc(OC)ccc21
48
